assay: Cytotoxicity against human WPMY-1 cells assessed as cell survival rate at 1 uM incubated for 24 hrs by WST-8 assay; assay type: toxicity, cell-based; details: read-out: Survival

# MOLECULAR_STRING, viability at 24 h, 1 µM
records = [
    ("CCn1c(=O)c(-c2ccc(Cl)cc2Cl)cc2cnc(Nc3ccc(N4CCNCC4)c(F)c3)nc21", "55%"),
]

====

assay: Cytotoxicity against human WPMY-1 cells assessed as cell survival rate at 1 uM incubated for 24 to 72 hrs by WST-8 assay; type: toxicity, cell-based; conditions: time 24-72 hrs, read-out: Survival
MEASURE: viability at 1 µM (%)

# MOLECULAR_STRING, MEASURED_NUMBER
data = [
    ("Oc1ccc2ccccc2c1SSc1c(O)ccc2ccccc12", 55),
]

====

experiment: Cytotoxicity against human WPMY-1 cells assessed as cell survival rate at 5 to 10 uM incubated for 48 to 72 hrs by WST-8 assay; type: toxicity, cell-based; settings: dose lower 5 µM, time lower 48 hrs, dose upper 10 µM, time upper 72 hrs, read-out: Survival
MEASURE: viability at up to 10 µM (%)

# MOLECULAR_STRING, MEASURE, VALUE_UNITS, MEASURED_NUMBER
records = [
    ("CCn1c(=O)c(-c2ccc(Cl)cc2Cl)cc2cnc(Nc3ccc(N4CCNCC4)c(F)c3)nc21", "viability at up to 10 µM", "%", 1),
]

Source: ChEMBL document CHEMBL5653625
